All values here come from ChEMBL document CHEMBL1145606.

Recorded measurements of Activity, one per entry
# Tested on: Trichostrongylus colubriformis
# MEASUREMENT DESCRIPTION: Anthelmintic activity against Trichostrongylus colubriformis infected in gerbils assessed as reduction in worm count at 10 mg/kg, po
# Format: functional
# Set-up: scale not given: the % may be the effect or the level left
PROPERTY NAME: Activity (%)

INSERT INTO measurements (compound, property_name, measured_value) VALUES
  ('CC(C#N)(COc1ccccc1C(F)(F)F)NC(=O)c1ccc(OC(F)(F)F)cc1 (stereo unspecified)', 'Activity', 97),
  ('CC(C#N)(COc1cccc(Cl)c1Cl)NC(=O)c1ccc(C(F)(F)F)cc1 (stereo unspecified)', 'Activity', 67),
  ('CC(C#N)(COc1ccccc1Br)NC(=O)c1ccc(OC(F)(F)F)cc1 (stereo unspecified)', 'Activity', 99),
  ('CC(C#N)(COc1ccc(Cl)cc1Cl)NC(=O)c1ccc(OC(F)(F)F)cc1 (stereo unspecified)', 'Activity', 100),
  ('CC(C#N)(COc1ccccc1C(F)(F)F)NC(=O)c1ccc(SC(F)(F)F)cc1 (stereo unspecified)', 'Activity', 99),
  ('CC(C#N)(COc1ccccc1Cl)NC(=O)c1ccc(C(F)(F)F)cc1 (stereo unspecified)', 'Activity', 19);

---

# Tested on: Haemonchus contortus
# MEASUREMENT DESCRIPTION: Anthelmintic activity against benzimidazole-resistant Haemonchus contortus isolate by larva development assay
# Type: functional
Recorded measurements of EC100, one per entry
PROPERTY NAME: EC100 (ppm)

INSERT INTO results (molecule, unit_name, measurement_qualifier, measured_value) VALUES
  ('CC(C#N)(COc1ccc(C#N)cc1C(F)(F)F)NC(=O)c1ccc(OC(F)(F)F)cc1 (stereo not given)', 'ppm', '=', 0.032),
  ('CC(C#N)(COc1cc(C#N)ccc1C(F)(F)F)NC(=O)c1ccc(OC(F)(F)F)cc1 (stereo not given)', 'ppm', '=', 0.01),
  ('CC(C#N)(COc1cc(C#N)ccc1C(F)(F)F)NC(=O)c1ccc(C(F)(F)F)cc1 (stereo not given)', 'ppm', '=', 0.032),
  ('CC(C#N)(COc1ccccc1F)NC(=O)c1ccc(C(F)(F)F)cc1 (stereo not given)', 'ppm', '=', 1),
  ('CC(C#N)(COc1ccccc1Cl)NC(=O)c1cccc(OC(F)(F)F)c1 (stereo not given)', 'ppm', '>', 10),
  ('CC(C#N)(COc1cccc(F)c1)NC(=O)c1ccc(OC(F)(F)F)cc1 (stereo not given)', 'ppm', '=', 0.32),
  ('C[C@](C#N)(COc1cc(C#N)ccc1C(F)(F)F)NC(=O)c1ccc(SC(F)(F)F)cc1', 'ppm', '=', 0.0032),
  ('CC(C#N)(COc1cc(F)ccc1Br)NC(=O)c1ccc(OC(F)(F)F)cc1 (stereo not given)', 'ppm', '=', 0.01),
  ('CC(C#N)(COc1ccc(F)cc1Cl)NC(=O)c1ccc(OC(F)(F)F)cc1 (stereo not given)', 'ppm', '=', 0.032),
  ('CC(C#N)(COc1cc(F)c(F)cc1C(F)(F)F)NC(=O)c1ccc(SC(F)(F)F)cc1 (stereo not given)', 'ppm', '=', 0.032);

---

# Test system: Haemonchus contortus
# MEASUREMENT DESCRIPTION: Anthelmintic activity against benzimidazole-resistant Haemonchus contortus isolate by larva development assay
# Format: functional
PROPERTY NAME: log10 of EC100 (log10 of the value in ppm)

INSERT INTO measurements (molecule, target_desc, measured_value) VALUES
  ('CCc1ccccc1OCC(C)(C#N)NC(=O)c1ccc(OC(F)(F)F)cc1 (stereo not given)', 'Haemonchus contortus', -0.49),
  ('CC(C#N)(COc1ccccc1C(F)(F)F)NC(=O)c1ccc(OC(F)(F)F)cc1 (stereo not given)', 'Haemonchus contortus', -2.00),
  ('CC(C#N)(COc1ccc(C#N)cc1C(F)(F)F)NC(=O)c1ccc(C(F)(F)F)cc1 (stereo not given)', 'Haemonchus contortus', -1.00),
  ('CC(C#N)(COc1ccc(Cl)cc1Cl)NC(=O)c1ccc(OC(F)(F)F)cc1 (stereo not given)', 'Haemonchus contortus', -1.00),
  ('CC(C#N)(COc1ccccc1C(F)(F)F)NC(=O)c1ccc(SC(F)(F)F)cc1 (stereo not given)', 'Haemonchus contortus', -1.49),
  ('c1ccc([C@H]2CN3CCSC3=N2)cc1 [LEVAMISOLE]', 'Haemonchus contortus', -0.49),
  ('CC(C#N)(COc1cc(F)c(F)cc1C(F)(F)F)NC(=O)c1ccc(OC(F)(F)F)cc1 (stereo in doubt; 19)', 'Haemonchus contortus', -2.00),
  ('CC(C#N)(COc1cccc(Cl)c1Cl)NC(=O)c1ccc(C(F)(F)F)cc1 (stereo not given)', 'Haemonchus contortus', -1.00),
  ('CC(C#N)(COc1cc(F)c(F)cc1C(F)(F)F)NC(=O)c1ccc(OC(F)(F)F)cc1 (single isomer, unassigned; (+))', 'Haemonchus contortus', 0.00),
  ('CC(C#N)(COc1ccccc1Br)NC(=O)c1ccc(OC(F)(F)F)cc1 (stereo not given)', 'Haemonchus contortus', -1.49),
  ('CC(C#N)(COc1cc(F)c(F)cc1C(F)(F)F)NC(=O)c1ccc(C(F)(F)F)cc1 (stereo not given)', 'Haemonchus contortus', -1.49),
  ('c1ccc2[nH]c(-c3cscn3)nc2c1 [THIABENDAZOLE]', 'Haemonchus contortus', 1.00),
  ('CC(C#N)(COc1ccccc1C(F)(F)F)NC(=O)c1ccccc1 (stereo not given)', 'Haemonchus contortus', 1.00),
  ('CC(C#N)(COc1ccccc1Cl)NC(=O)c1ccc(Cl)cc1 (stereo not given)', 'Haemonchus contortus', -0.49),
  ('CC(C#N)(COc1cc(F)c(F)cc1Br)NC(=O)c1ccc(OC(F)(F)F)cc1 (stereo not given)', 'Haemonchus contortus', -2.00);
